Target: T1, human CD19 protein with a biotinylated AviTag (Acrobiosystems) (human, UniProt P15391 20-291, biotinylated AviTag)
T1 construct: Captured on streptavidin-coated microplate wells; also called biotinylated-AviTag-CD19; hCD19; not shown: AviTag
T1 sequence (looked up): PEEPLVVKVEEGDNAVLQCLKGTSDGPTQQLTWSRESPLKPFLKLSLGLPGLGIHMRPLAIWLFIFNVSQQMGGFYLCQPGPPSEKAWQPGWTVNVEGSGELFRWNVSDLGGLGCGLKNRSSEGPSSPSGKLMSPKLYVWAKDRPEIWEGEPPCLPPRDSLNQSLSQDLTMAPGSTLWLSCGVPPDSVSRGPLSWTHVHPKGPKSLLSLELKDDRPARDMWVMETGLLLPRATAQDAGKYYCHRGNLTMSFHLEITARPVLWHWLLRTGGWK
Experiment: phage ELISA, biotinylated AviTag CD19 on streptavidin wells; signal ratio to FMC63 standard
quantity: ELISA hCD19 (ratio FMC63)

Entry scFv 22 (scFv, Canine scFv (VL-linker-VH); also called P3-09; P3-11) scFv: QPVLTQPPSVSGSLGQRVTISCTGSSSNVGYGDYVGWYQQLPGTSPRTLIYSSSSRPSGVPDRFSGSRSGSTATLTISGLQAEDEADYHCSSYDTSLNGFVFGSGTQLTILGGGSSRSSSSGGGGSGGGGELTLQESGPGLVKPAQTLSLTCTVSGDSVTSSHFWHWIRQRPGRGLEWMGYWSDITIYSPTFQGRISITVDTARNQFSLHLNSVTTEDSAVYFCARYNGYVDYLDVWGQGTLITVSSASTTAPSVTSGQAGQHHHHHHGAYPYDVPDYAS — recorded ELISA hCD19 (ratio FMC63) = 0.21 ratio to FMC63

Entry scFv 28 (scFv, Canine scFv (VL-linker-VH); also called P3-30) scFv: QSALTQPSSVSVSLGQTATISCSGESLNKYYVQWFQQKAGQVPILVIYRDTERPSGIPDRFSGSSSGNTHTLTITGTRAEDEADYYCESLVNDNTYVFGSGTQLTVLGGGSSRSSSSGGGGSGGGGEVQLVETGGDLVKPGGSLRLSCVGSGFTFSSYWMSWVRQAPGKGLQWIADISDSGSSTDYADAVKGRFTISRDNAKNTLYLQMNSLRAEDTAMYYCARGLGMDYWGHGTSLFVSSASTTAPSVTSGQAGQHHHHHHGAYPYDVPDYAS — recorded ELISA hCD19 (ratio FMC63) = 0.33 ratio to FMC63
